Reference for the values: PubChem BioAssay AID449739

Tgt: Voltage-dependent T-type calcium channel subunit alpha-1H (Homo sapiens)
Experiment Notes: Cav3.2 calcium influx blockers – cell-based, Fluo-4 calcium fluorescence, FDSS, MLSMR library, primary screen (AID 449739)
Conditions: Cav3.2-expressing cells, at 10 µM
Hit rate of the full screen: of about 100,000 compounds, about 4,200 (4.2%) were called active.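 The calls were made as follows: active = single-dose well whose peak fluorescence ratio is a statistical outlier from its plate by either plate-standardised score or position-corrected B-score; inactive = the rest.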 Shown is part of a subset that was picked to be rich in actives.
Output constraint: value belongs to 1.0 = active, 0.0 = inactive

Qu. # outcome recorded in this test, key = Cc1nc(C(=O)NCc2ccccc2)sc1C1(C)CC(c2cccnc2)=NO1 (stereo unspecified)
Ans. 0.0

Qu. # outcome recorded in this test, key = COc1ccc(SCc2noc(C(=O)NCC3CCCO3)c2C(=O)O)cc1 (stereo unspecified)
Ans. 0.0

Qu. # outcome recorded in this test, key = Cc1nnc(NC(=O)CSc2nc(C3CCCCC3)nc3ccccc23)s1
Ans. 0.0

Qu. # outcome recorded in this test, key = CCC1(CC)C(=O)C2=C3C1[C@H](C(=O)OC)C=C(C(=O)OC)C[C@H]3[C@H]1C(=O)N(Cc3ccccc3)C(=O)[C@H]1[C@H]2C (stereo partly specified)
Ans. 0.0

Qu. # outcome recorded in this test, key = CC1=NN(C(=O)c2ccccc2Br)C(O)(c2cccnc2)C1 (stereo unspecified)
Ans. 0.0

Qu. # outcome recorded in this test, key = Cc1cc2c(c(=O)n1Cc1ccco1)C(c1ccccc1)C(C#N)=C(N)O2 (stereo unspecified)
Ans. 0.0

Qu. # outcome recorded in this test, key = CCOc1ccc2c(c1)cc(CN(C(=O)CC)C1CCCCC1)c1nnnn12
Ans. 1.0

Qu. # outcome recorded in this test, key = CCn1c(SCC(=O)Nc2nc3ccc(OC)cc3s2)nnc1-c1ccoc1C
Ans. 0.0

Qu. # outcome recorded in this test, key = CN(c1ccccc1)c1ccc(/C=c2\s/c(=C(/C#N)C(=O)C(C)(C)C)n(Cc3ccco3)c2=O)cc1
Ans. 1.0

Qu. # outcome recorded in this test, key = C=CCn1c(N)cc(=O)nc1SCC(=O)Nc1cccc2ccccc12
Ans. 0.0

Qu. # outcome recorded in this test, key = CCNC(=S)N1CCN(C(=O)c2ccco2)CC1
Ans. 0.0

Qu. # outcome recorded in this test, key = c1ccc(CSc2nnc(-c3ccco3)c(-c3ccco3)n2)cc1
Ans. 0.0

Qu. # outcome recorded in this test, key = CCOc1ccc2[nH]c(=O)c(CN(Cc3nnnn3Cc3ccccc3)CC3CCCO3)cc2c1 (stereo unspecified)
Ans. 0.0

Qu. # outcome recorded in this test, key = CCOC(=O)CSc1nc2c(sc(=S)n2CCc2ccccc2)c(=O)n1Cc1ccco1
Ans. 0.0

Qu. # outcome recorded in this test, key = Cc1noc(C)c1C(=O)N(CC(=O)NC1CCCC1)Cc1ccccc1F
Ans. 0.0

Qu. # outcome recorded in this test, key = C=CCOC(=O)C1=C[C@H](c2ccc(Br)cc2)C[C@H](OCCCCO)O1
Ans. 0.0

Qu. # outcome recorded in this test, key = O=C(CN1CCN(c2ccc(F)cc2)CC1)Nc1cccc(C(F)(F)F)c1
Ans. 1.0

Qu. # outcome recorded in this test, key = FC(F)(F)c1cccc(NC(=S)Nc2cccc(Cl)c2)c1
Ans. 1.0

Qu. # outcome recorded in this test, key = O=C(CN1CCN(CC(=O)Nc2ccc3c(c2)OCO3)CC1)Nc1ccc(F)cc1
Ans. 0.0

Qu. # outcome recorded in this test, key = COc1cccc(CNc2nc3nc4c(c(=O)n3[nH]2)CCC4)c1
Ans. 0.0

Qu. # outcome recorded in this test, key = O=C(NCc1ccccc1)C1=C[C@H](C2CC2)C[C@H](OCc2ccc(CO)cc2)O1
Ans. 0.0

---

Tgt: Voltage-dependent T-type calcium channel subunit alpha-1H (Homo sapiens) (UniProt O95180)
Sequence (O95180 whole entry, looked up): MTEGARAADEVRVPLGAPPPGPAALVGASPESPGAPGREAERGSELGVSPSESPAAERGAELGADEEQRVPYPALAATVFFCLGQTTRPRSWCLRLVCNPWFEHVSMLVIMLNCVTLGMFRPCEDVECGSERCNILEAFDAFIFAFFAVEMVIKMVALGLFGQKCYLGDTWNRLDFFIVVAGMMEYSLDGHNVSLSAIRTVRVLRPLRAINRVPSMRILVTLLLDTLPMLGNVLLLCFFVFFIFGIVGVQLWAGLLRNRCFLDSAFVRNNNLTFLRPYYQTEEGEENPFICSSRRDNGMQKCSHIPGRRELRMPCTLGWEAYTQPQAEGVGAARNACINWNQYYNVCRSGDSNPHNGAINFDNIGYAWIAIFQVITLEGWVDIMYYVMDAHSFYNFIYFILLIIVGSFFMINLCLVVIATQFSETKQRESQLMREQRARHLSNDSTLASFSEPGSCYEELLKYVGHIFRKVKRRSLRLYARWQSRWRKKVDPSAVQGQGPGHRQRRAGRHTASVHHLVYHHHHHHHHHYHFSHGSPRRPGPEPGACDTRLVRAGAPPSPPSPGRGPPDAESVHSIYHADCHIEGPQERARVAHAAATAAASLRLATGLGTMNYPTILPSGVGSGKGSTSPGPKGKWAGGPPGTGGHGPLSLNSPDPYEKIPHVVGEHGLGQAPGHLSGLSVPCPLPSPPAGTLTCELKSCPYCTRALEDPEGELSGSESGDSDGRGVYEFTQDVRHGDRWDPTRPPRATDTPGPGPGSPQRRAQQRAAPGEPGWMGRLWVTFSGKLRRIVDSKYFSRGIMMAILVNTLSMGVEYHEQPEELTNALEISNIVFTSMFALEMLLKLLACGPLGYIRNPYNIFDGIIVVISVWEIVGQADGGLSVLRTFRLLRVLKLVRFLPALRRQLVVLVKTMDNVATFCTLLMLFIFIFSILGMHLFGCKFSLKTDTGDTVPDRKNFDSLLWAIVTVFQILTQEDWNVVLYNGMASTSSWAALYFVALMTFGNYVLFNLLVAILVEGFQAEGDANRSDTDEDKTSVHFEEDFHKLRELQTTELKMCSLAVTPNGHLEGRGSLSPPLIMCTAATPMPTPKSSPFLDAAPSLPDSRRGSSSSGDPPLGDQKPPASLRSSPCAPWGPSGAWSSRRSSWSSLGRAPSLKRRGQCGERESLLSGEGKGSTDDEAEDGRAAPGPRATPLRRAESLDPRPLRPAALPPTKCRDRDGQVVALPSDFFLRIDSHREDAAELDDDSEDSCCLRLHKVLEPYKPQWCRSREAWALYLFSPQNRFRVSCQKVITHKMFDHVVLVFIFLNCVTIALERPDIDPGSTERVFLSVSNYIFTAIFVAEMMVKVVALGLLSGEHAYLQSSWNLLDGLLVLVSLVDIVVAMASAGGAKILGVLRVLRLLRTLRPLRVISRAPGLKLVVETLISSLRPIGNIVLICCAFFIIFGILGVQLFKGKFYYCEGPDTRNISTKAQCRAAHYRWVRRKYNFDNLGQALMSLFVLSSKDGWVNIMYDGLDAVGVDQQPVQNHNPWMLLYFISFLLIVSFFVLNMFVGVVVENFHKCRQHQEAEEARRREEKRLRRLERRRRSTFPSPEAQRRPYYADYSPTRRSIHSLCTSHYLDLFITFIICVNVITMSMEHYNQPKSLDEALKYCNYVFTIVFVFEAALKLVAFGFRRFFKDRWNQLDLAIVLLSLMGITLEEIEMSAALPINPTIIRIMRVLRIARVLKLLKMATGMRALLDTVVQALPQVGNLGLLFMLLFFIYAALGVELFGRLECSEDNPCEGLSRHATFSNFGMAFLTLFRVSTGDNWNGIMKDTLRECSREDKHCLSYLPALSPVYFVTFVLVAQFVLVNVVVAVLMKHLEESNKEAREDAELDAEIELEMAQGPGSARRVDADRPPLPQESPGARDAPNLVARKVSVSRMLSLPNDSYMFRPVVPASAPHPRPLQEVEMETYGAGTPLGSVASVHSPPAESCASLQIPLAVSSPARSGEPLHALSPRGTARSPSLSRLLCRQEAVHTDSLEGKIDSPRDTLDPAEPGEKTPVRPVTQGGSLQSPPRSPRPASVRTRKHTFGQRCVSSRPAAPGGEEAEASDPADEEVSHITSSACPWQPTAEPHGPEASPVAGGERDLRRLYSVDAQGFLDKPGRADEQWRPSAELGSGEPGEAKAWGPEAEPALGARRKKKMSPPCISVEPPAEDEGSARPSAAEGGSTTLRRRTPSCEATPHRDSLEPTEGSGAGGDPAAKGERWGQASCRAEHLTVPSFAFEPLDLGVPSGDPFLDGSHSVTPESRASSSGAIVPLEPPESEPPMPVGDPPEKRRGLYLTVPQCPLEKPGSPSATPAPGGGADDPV
Experiment Notes: Cav3.2 calcium influx blockers – cell-based, Fluo-4 calcium fluorescence, FDSS, MLSMR library, primary screen (AID 449739)
Conditions: Cav3.2-expressing cells, at 10 µM, active compounds read low
The campaign covered roughly 100,000 compounds. About 4,200 (4.2%) were called active. This excerpt belongs to a sample that is enriched for actives.
Measurement Kind: B-score

Qu. // query B-score value for entry Cc1ccc(C(C(=O)NCc2ccco2)N(CC2CCCO2)C(=O)Cn2nnc3ccccc32)cc1 (stereo not given)
Ans. 0.195 (inactive)

Qu. // query B-score value for entry COC(C[C@@H]1O[C@@H]1C(=O)[C@@H](C)OCc1ccccc1)OC
Ans. 0.0102 (inactive)

Qu. // query B-score value for entry C#CCN(N(C)c1ncc(C(F)(F)F)cc1Cl)S(=O)(=O)c1ccc2ccccc2c1
Ans. -1.26 (inactive)

Qu. // query B-score value for entry Cc1ccc(-n2c(C)cc(/C=N/Nc3ccc([N+](=O)[O-])cn3)c2C)c(C)c1
Ans. -3.21 (inactive)

Qu. // query B-score value for entry CCOc1ccc(S(=O)(=O)n2ccnc2)c2ccccc12
Ans. 0.109 (inactive)

Qu. // query B-score value for entry CCOC(=O)c1cc2n(c1N)-c1ccccc1C2=O
Ans. -9.74 (active)

Qu. // query B-score value for entry COC(=O)C1=C(C(=O)OC)[C@@H]2N(C)c3ccccc3[C@@]23C[C@@H](C(=O)OC)N(C(=O)c2ccco2)C3=N1
Ans. 0.92 (inactive)

Qu. // query B-score value for entry CC(C)C(c1nnnn1C1CCCC1)N1CCN(c2ccccc2F)CC1 (stereo not given)
Ans. -2.85 (inactive)

Qu. // query B-score value for entry CN1/C(=c2/s/c(=C3/C(=O)N(c4ccccc4)NC3=Nc3ccccc3)n(C)c2=O)C(C)(C)c2ccccc21
Ans. -2.19 (inactive)

Qu. // query B-score value for entry CCOC(=O)c1cc2n(c1C)-c1ccccc1C2=O
Ans. -0.985 (inactive)

Qu. // query B-score value for entry COc1ccc(C(c2nnnn2C2CCCCC2)N2CCN(c3ccccc3F)CC2)cc1 (stereo not given)
Ans. -6.41 (active)

Qu. // query B-score value for entry CN1CCN(C(CNS(=O)(=O)c2cccs2)c2cccnc2)CC1 (stereo not given)
Ans. -0.131 (inactive)

Qu. // query B-score value for entry COC(=O)CCCC1=CC2=C(c3ccccc3)C(=O)C(C)(OC(=O)C3CCCC3)C(=O)C2=CN1c1ccc(OC)cc1 (stereo not given)
Ans. 0.00545 (inactive)

Qu. // query B-score value for entry COc1ccc(N2CCN(C(c3cc4ccc(C)cc4[nH]c3=O)c3nnnn3C3CCCC3)CC2)cc1 (stereo not given)
Ans. -2.59 (inactive)

Qu. // query B-score value for entry CC(C)(C)n1nnnc1C(c1ccc(F)cc1)N1CCN(Cc2ccc3c(c2)OCO3)CC1 (stereo not given)
Ans. -3.16 (inactive)

Qu. // query B-score value for entry O=C(NCCCCc1ccccc1)C1CC(c2ccc([N+](=O)[O-])cc2)=NO1 (stereo not given)
Ans. -2.65 (inactive)

Qu. // query B-score value for entry CCOC(=O)c1cc(NC(=O)c2ccc(Cl)cc2)c(=O)oc1-c1ccccc1
Ans. -0.21 (inactive)

Qu. // query B-score value for entry O=C(Nc1ccc(-c2csc(Nc3cccc(C(F)(F)F)c3)n2)cc1)c1cccc(C(F)(F)F)c1
Ans. 0.00365 (inactive)

Qu. // query B-score value for entry CC1(c2nnc(-c3ccncc3)o2)CC(c2cccnc2)=NO1 (stereo not given)
Ans. 0.534 (inactive)

Qu. // query B-score value for entry CN(C)/C=C(\C#N)C(=O)c1cccnc1Oc1ccc(F)cc1F
Ans. 0.526 (inactive)

---

Tgt: Voltage-dependent T-type calcium channel subunit alpha-1H (Homo sapiens) (UniProt O95180)
Experiment Notes: Cav3.2 calcium influx blockers – cell-based, Fluo-4 calcium fluorescence, FDSS, MLSMR library, primary screen (AID 449739)
Conditions: Cav3.2-expressing cells, at 10 µM, active compounds read low
The campaign covered roughly 100,000 compounds. About 4,200 (4.2%) were called active. Only a selection was taken, and actives are over-represented in it overall.
Strictly below 0.2 in B-score: label 1. Otherwise: label 0.

Qu. API: query returns whether the compound falls strictly under 0.2 in B-score. Query: O=C(CSc1nnc(-c2cccnc2)n1Cc1ccco1)c1ccc(Cl)cc1
Ans. label 0

Qu. API: query returns whether the compound falls strictly under 0.2 in B-score. Query: O=C(CC1N=C2c3ccccc3N=C(SCc3ccccc3Cl)N2C1=O)NCc1ccco1 (stereo not given)
Ans. label 1

Qu. API: query returns whether the compound falls strictly under 0.2 in B-score. Query: CCn1c(CNc2ccc(OC)cc2)nnc1SCC(=O)c1ccc(OC)cc1
Ans. label 0

Qu. API: query returns whether the compound falls strictly under 0.2 in B-score. Query: CCC(C)NC(=O)CSC1=Nc2ccccc2C2=NC(CCC(=O)NCc3ccco3)C(=O)N12 (stereo not given)
Ans. label 1

Qu. API: query returns whether the compound falls strictly under 0.2 in B-score. Query: COc1ccc(C(=O)CSc2nnc(COc3ccccc3)n2Cc2ccco2)cc1
Ans. label 1
